Reference source for all entries: patent US11040976B2

# SYSTEM NAME: recombinant human IDE42-1019 (Homo sapiens)
# Construct: recombinant human IDE42-1019 (R&D Systems); purchased R&D Systems
# ASSAY OVERVIEW: Protease assay with fluorogenic peptide substrate Mca-[…](Dnp)-OH
# Assay type: biochemical
# RUN CONDITIONS: fluorogenic peptide Mca-RPPGFSAFK(Dnp)-OH; apparent IC50 for compounds with submaximal inhibition; read-out: IC50 (μM) Proteolysis
MEASURED ATTRIBUTE: IC50 (µM)
Respond numerically; units are µM and should not be typed.

Please review the following examples before continuing.
>>> assay_result("COC[C@@H]1[C@@H](c2ccc(-c3ccc(F)c(C)c3C)cc2)[C@@H]2CN(S(=O)(=O)c3ccccc3C(F)(F)F)CCCCN12 [JP-41-OMe]")
0.09
>>> assay_result("Cc1cccc(-c2ccc(C3CCN(S(=O)(=O)N4CC(C)OC(C)C4)CC3)cc2)c1C (centres unmarked) [A19]")
4
>>> assay_result("Cc1cccc(-c2ccc(N3CCN(C(=O)CC4CCCCC4)CC3)cc2)c1C [J16]")
2.5
>>> assay_result("Cc1ccccc1-c1ccc(C2C3CN(S(=O)(=O)c4cn(C)cn4)CC2N3)cc1 (centres unmarked) [C2]")
7
>>> assay_result("Cc1cccc(-c2ccc(C3CCN(Cc4cccc(Oc5ccccc5)c4)CC3)cc2)c1C [A32]")
12

Ask: Quickly give me recorded IC50 for O=C(NC1CCCC1)N1CCCCN2[C@@H](CO)[C@H](c3ccc(/C=C/c4ccccc4)cc3)[C@@H]2C1 [compound 346]
Result: 1.5

###

# SYSTEM NAME: recombinant human IDE42-1019 (Homo sapiens)
# Construct: recombinant human IDE42-1019 (R&D Systems); purchased R&D Systems
# ASSAY OVERVIEW: Protease assay with fluorogenic peptide substrate Mca-[…](Dnp)-OH
# Format: biochemical
# RUN CONDITIONS: fluorogenic peptide Mca-RPPGFSAFK(Dnp)-OH; apparent IC50 for compounds with submaximal inhibition; read-out: IC50 (μM) Proteolysis
Reported values of log10(IC50) for individual entries
Values below are the log10 of the recorded IC50, with µM as the unit.

>>> assay_result("Cc1ccccc1-c1ccc([C@H]2[C@@H](CO)N3C(=O)CN(C(=O)c4cccnc4)C[C@H]23)cc1")
0.30

Ask: Given the compound COc1ccccc1-c1ccc([C@@H]2[C@@H](C#N)N(C(=O)c3cccnc3)[C@@H]2CO)cc1 , write its reported log10(IC50).
Result: 0.88

Ask: Let me know recorded log10(IC50) for COC[C@@H]1[C@@H](c2ccc(-c3cccc(C)c3C)cc2)[C@@H]2CN(S(=O)(=O)c3ccccc3C(F)(F)F)CCCCN12 , thanks.
Result: -1.30

###

# SYSTEM NAME: recombinant human IDE42-1019 (Homo sapiens)
# Construct: recombinant human IDE42-1019 (R&D Systems); purchased R&D Systems
# ASSAY OVERVIEW: Protease assay with fluorogenic peptide substrate Mca-[…](Dnp)-OH
# Format: biochemical
# RUN CONDITIONS: fluorogenic peptide Mca-RPPGFSAFK(Dnp)-OH; plateau at high inhibitor concentration; read-out: Imax (%) Proteolysis (inhibition maximum)
Reported Emax values for a set of molecules
Write it as a number; the unit % goes unstated.

>>> assay_result("Cc1ccccc1-c1ccc([C@@H]2[C@H]3CN(C(=O)c4ccncc4)CC(=O)N3[C@H]2CO)cc1")
80

Ask: For the molecule COc1ccccc1NC(=O)N1CCCCN2[C@H](CO)[C@@H](c3ccc(-c4cccc(C)c4)cc3)[C@@H]2C1 , give its reported Emax.
Result: 20

Ask: Give a short answer stating reported Emax for Cc1ccccc1-c1ccc(C2C3CN(Cc4cncnc4)CC2N3)cc1 (stereo not shown) .
Result: 70

Ask: Let me know recorded Emax for Cc1cccc(-c2ccc([C@H]3[C@H](CO)N4C(=O)CN(C(=O)NC5CCCCC5)C[C@@H]34)cc2)c1 , thanks.
Result: 60

###

# SYSTEM NAME: IDE (R&D), substrate glucagon (Homo sapiens, UniProt P14735)
# Construct: recombinant human IDE42-1019 (R&D Systems); purchased R&D
# Sequence (P14735 42-1019): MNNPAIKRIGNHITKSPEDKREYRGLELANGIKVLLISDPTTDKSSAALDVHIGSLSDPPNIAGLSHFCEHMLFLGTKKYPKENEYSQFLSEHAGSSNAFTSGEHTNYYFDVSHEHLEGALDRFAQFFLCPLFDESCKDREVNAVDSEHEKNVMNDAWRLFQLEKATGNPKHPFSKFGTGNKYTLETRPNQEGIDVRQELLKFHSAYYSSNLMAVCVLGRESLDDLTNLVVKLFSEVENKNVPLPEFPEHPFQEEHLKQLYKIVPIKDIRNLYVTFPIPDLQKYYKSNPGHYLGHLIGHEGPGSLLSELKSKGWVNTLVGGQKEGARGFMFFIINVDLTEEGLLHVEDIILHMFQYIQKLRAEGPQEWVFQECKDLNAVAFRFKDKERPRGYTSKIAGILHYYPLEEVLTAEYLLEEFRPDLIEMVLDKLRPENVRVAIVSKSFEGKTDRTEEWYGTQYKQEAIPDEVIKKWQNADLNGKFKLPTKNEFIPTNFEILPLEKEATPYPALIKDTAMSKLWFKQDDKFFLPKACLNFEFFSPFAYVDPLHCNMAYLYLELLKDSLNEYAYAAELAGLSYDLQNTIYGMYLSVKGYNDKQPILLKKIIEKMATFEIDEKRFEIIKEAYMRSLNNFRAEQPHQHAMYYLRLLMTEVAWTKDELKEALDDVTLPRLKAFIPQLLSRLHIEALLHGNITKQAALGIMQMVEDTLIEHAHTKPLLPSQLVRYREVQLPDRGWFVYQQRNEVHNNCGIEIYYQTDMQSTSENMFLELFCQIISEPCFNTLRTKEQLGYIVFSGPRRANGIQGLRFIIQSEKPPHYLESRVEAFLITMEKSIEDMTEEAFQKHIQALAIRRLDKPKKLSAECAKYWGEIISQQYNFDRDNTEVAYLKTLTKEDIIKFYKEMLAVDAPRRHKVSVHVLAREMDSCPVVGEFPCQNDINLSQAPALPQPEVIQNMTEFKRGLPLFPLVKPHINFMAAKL
# ASSAY OVERVIEW: HTRF assay for IDE-mediated degradation of glucagon
# Format: biochemical
# RUN CONDITIONS: compounds 67 μM, 0° C. for 10 minutes, versus DMSO alone, FIG. 5
MEASURED ATTRIBUTE: initial rates of glucagon cleavage

>>> assay_result("Cc1cccc(-c2ccc([C@@H]3[C@@H](CO)N4CCCCN(S(=O)(=O)c5ccccc5C)C[C@@H]34)cc2)c1")
"reduced"
>>> assay_result("Cc1ccccc1-c1ccc([C@H]2[C@H](CO)N3C(=O)CN(C(=O)NC4CCCC4)C[C@@H]23)cc1")
"enhanced"
>>> assay_result("Cc1ccccc1-c1ccc([C@@H]2[C@@H](CO)N3CCCCN(S(C)(=O)=O)C[C@@H]23)cc1")
"enhanced"
>>> assay_result("CCCNC(=O)N1CC(=O)N2[C@H](CO)[C@@H](c3ccc(-c4cccc(C)c4)cc3)[C@@H]2C1")
"reduced"

###

# SYSTEM NAME: recombinant human IDE42-1019 (Homo sapiens, UniProt P14735)
# Construct: recombinant human IDE42-1019 (R&D Systems); purchased R&D Systems
# Sequence (P14735 42-1019): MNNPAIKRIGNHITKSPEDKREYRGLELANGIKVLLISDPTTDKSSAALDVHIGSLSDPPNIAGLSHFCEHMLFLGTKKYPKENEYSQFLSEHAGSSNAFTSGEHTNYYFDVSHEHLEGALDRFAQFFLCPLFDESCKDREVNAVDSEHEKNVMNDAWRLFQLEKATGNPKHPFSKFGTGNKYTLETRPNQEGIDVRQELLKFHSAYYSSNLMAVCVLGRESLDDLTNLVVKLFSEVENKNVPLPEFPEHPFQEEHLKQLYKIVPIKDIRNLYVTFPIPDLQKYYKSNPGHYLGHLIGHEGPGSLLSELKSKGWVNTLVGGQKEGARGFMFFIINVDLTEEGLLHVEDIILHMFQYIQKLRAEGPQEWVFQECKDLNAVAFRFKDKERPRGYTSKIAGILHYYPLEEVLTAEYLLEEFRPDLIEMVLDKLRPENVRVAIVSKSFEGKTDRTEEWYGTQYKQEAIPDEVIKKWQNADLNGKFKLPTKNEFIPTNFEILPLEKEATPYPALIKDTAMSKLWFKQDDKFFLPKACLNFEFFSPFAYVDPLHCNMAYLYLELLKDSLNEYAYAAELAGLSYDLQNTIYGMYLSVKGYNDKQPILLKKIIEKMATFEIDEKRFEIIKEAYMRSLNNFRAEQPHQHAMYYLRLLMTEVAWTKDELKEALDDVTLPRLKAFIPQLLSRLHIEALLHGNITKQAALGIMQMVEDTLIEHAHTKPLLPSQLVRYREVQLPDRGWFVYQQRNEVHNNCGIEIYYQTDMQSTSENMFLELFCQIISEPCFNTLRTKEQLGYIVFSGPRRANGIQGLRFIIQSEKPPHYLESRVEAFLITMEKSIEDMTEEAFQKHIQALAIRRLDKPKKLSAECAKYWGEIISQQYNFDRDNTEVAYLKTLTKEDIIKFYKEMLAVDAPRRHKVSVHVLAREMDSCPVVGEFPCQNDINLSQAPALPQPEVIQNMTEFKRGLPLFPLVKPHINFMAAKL
# ASSAY OVERVIEW: Protease assay with fluorogenic peptide substrate Mca-[…](Dnp)-OH
# Format: biochemical
# RUN CONDITIONS: fluorogenic peptide Mca-RPPGFSAFK(Dnp)-OH; plateau at high inhibitor concentration; read-out: Imax (%) Proteolysis (inhibition maximum)
MEASURED ATTRIBUTE: Emax (%)
Kindly answer with a numeric value in %, unit omitted.

Record excerpt, results attached:
>>> assay_result("Cc1ccccc1-c1ccc([C@@H]2[C@@H](CO)N3C(=O)CN(S(C)(=O)=O)C[C@@H]23)cc1")
40
>>> assay_result("Cc1cccc(-c2ccc([C@@H]3[C@@H](CO)N4CCCCN(S(=O)(=O)c5cn(C)cn5)C[C@@H]34)cc2)c1")
50
>>> assay_result("Cc1cccc(-c2ccc([C@@H]3[C@H]4CN(C(=O)c5cccnc5)CC(=O)N4[C@H]3CO)cc2)c1")
80
>>> assay_result("Cc1ccccc1-c1ccc([C@H]2[C@@H](CO)N3CCCCN(C(=O)NC4CCCC4)C[C@H]23)cc1")
50
>>> assay_result("COc1ccccc1-c1ccc([C@H]2C3CN(S(=O)(=O)c4ccccc4C)CCCCN3[C@@H]2CO)cc1 (some centres unmarked)")
65
>>> assay_result("Cc1cccc(-c2ccc([C@@H]3[C@H](CO)N4CCCCN(S(=O)(=O)c5ccccc5F)C[C@@H]34)cc2)c1")
30

Ask: State its Emax: Cc1cccc(-c2ccc([C@@H]3[C@@H](CO)N4CCCCN(S(=O)(=O)c5cccs5)C[C@@H]34)cc2)c1
Result: 30

Ask: Answer with reported Emax of Cc1cc(C)cc(-c2ccc([C@H]3C4CN(S(=O)(=O)c5ccccc5C)CCCCN4[C@@H]3CO)cc2)c1 (some centres unmarked)
Result: 72

Ask: Complete the entry with Emax for Cc1ccccc1-c1ccc(C2C3CN(S(=O)(=O)c4cn(C)cn4)CC2N3)cc1 (centres unmarked)
Result: 50

Ask: Give a short answer stating reported Emax for Cc1ccccc1-c1ccc([C@H]2[C@@H](CO)N3CCCCN(S(=O)(=O)c4cn(C)cn4)C[C@H]23)cc1 .
Result: 35

Ask: Provide Emax value for the following molecule: Cc1cccc(-c2ccc([C@@H]3[C@@H](CO)N4C(=O)CN(C(=O)c5cnccn5)C[C@@H]34)cc2)c1
Result: 90

Ask: Kindly indicate its recorded Emax. Item: Cc1ccccc1-c1ccc(C2C3CN(C(=O)C4CCCCC4)CC2N3)cc1 (centres unmarked)
Result: 60

Ask: Give reported Emax value for COc1ccccc1-c1ccc([C@@H]2[C@@H](C#N)N(C(=O)c3cccnc3)[C@@H]2CO)cc1
Result: 60

Ask: Tell me its Emax given Cc1ccccc1S(=O)(=O)N1CCCCN2C(C1)[C@H](c1ccc(-c3cnc(F)c(C)c3)cc1)[C@H]2CO (some centres unmarked) as the entry.
Result: 100

Ask: Give the reported value of Emax for this record: COc1ccccc1C#Cc1ccc([C@H]2[C@H](CO)N3CCCCN(C(=O)C4CCC4)C[C@@H]23)cc1
Result: 80
